- EXPERIMENTAL_TARGET: wt MPER peptide (HIV-1)
Reported Kd values follow for various binders
Just the number in nM, nothing appended.

Use the examples below as a reference point.
# BINDER, MEASUREMENT_UNITS, Kd
records = [
    ("2F5 variant r2W (antibody, V domains shown) VH: RITLKESGPPLVKPTQTLTLTCSFSGFSLSDFGVGVGWIRQPPGKALEWLAIIYSDDDKRYSPSLNTRLTITKDTSKNQVVLVMTRVSPVDTATYFCAHRRGPTLFGWIARGPVNAMDVWGQGITVTISS VL: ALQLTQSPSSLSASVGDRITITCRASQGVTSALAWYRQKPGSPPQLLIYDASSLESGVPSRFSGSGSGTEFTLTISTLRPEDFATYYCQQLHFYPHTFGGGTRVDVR", "nM", 29.5),
    ("2F5 variant r4W2b (antibody, V domains shown) VH: RITLKESGPPLVKPTQTLTLTCSFSGFSLSDFGVGVGWIRQPPGKALEWLAIIYSDDDKRYSPSLNTRLTITKDTSKNQVVLVMTRVSPVDTATYFCAHRRGPLFWWARGPVNAMDVWGQGITVTISS VL: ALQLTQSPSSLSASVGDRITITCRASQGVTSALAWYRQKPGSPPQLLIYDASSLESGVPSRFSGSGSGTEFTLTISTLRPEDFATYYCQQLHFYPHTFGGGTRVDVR", "nM", 3.94),
]

(Q) Quick check: Kd of 2F5 variant r4W2c (antibody, V domains shown) VH: RITLKESGPPLVKPTQTLTLTCSFSGFSLSDFGVGVGWIRQPPGKALEWLAIIYSDDDKRYSPSLNTRLTITKDTSKNQVVLVMTRVSPVDTATYFCAHRRGPWFGWARGPVNAMDVWGQGITVTISS VL: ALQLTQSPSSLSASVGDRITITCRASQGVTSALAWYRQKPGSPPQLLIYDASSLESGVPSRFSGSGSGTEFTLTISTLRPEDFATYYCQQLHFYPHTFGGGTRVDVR ?
(A) 5.12
